Target under test: Flt3 kinase (Homo sapiens)
Sequence (P36888 27-993): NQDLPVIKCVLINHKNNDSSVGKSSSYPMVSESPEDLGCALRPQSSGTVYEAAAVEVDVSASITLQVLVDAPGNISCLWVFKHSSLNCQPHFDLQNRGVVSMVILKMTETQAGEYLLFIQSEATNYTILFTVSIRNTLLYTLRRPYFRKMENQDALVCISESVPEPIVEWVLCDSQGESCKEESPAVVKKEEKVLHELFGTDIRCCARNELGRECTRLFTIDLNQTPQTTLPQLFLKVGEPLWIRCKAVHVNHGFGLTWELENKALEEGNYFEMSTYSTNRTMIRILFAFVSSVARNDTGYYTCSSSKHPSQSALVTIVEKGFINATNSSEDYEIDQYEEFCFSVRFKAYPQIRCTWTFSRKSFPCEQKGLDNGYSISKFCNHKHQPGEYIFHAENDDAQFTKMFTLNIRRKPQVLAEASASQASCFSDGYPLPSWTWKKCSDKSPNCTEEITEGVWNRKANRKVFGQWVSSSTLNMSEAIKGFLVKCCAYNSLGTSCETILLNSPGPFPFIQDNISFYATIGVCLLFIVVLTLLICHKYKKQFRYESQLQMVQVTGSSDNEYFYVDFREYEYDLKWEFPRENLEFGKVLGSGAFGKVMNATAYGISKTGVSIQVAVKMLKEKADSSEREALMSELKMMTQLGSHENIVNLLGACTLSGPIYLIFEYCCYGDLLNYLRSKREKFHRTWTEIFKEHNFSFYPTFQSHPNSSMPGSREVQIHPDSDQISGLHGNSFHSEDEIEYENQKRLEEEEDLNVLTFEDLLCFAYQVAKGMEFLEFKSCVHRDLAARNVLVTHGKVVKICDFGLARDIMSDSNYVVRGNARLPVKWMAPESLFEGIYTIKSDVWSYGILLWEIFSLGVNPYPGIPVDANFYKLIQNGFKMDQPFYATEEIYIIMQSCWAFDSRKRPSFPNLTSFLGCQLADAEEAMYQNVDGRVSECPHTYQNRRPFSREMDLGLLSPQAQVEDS
pIC50: −log10 of the molar value.
Recorded metric: pIC50

Fill in the recorded pIC50 for this compound, with Flt3 kinase (Homo sapiens) as test system: CN(C)CCN(C)c1ccncc1NC(=O)c1nc(Br)cnc1N 4.60 to 5.00

----------
Target under test: UniProt:P11309
Sequence (P11309 whole entry): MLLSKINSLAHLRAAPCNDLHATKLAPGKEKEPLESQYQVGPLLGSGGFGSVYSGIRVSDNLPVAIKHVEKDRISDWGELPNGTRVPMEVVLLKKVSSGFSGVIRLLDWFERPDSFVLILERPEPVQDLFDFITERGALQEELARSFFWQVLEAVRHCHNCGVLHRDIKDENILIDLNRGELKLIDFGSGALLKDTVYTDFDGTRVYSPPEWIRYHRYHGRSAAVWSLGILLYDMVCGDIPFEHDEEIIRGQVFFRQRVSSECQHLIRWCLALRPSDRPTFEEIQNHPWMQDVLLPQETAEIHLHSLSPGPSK
Experimental protocol: Pim1 ATP depletion assay
Assay type: biochemical
Study conditions: Pim1 ATP depletion assay; read-out: IC50 (μM) PIM1;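 also: Luciferase-luciferin luminescence readout of residual ATP after PIM1 transfers phosphate to a peptide substrate, 40 µM ATP added, reaction run to roughly half ATP consumption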
Please provide measured IC50 for the entries that follow.

Given Nc1ncc(-c2cn[nH]c2)nc1C(=O)Nc1cnccc1N1CCCC(N)C1 (stereo not drawn) , state its recorded IC50. < 1 µM

Given the entry CC(=O)c1ccc(N2CCNCC2)c(NC(=O)c2nccnc2N)c1 , report its measured IC50. < 1 µM

Would you mind telling me what IC50 value was observed for Nc1ncc(Br)nc1C(=O)Nc1[nH]c(=O)ncc1N1CCCCC1 ? < 1 µM

// lookup IC50 for COc1ccc(F)c(-c2nc(C(=O)Nc3cnccc3N3CCC[C@H](N)C3)c(N)cc2F)c1 < 1 µM

Recorded IC50 for COc1nc(N)ncc1-c1ccc(N)c(C(=O)Nc2cnccc2N2CCC[C@H](N)C2)n1 , please? < 1 µM

Report IC50 for Nc1ncc(Br)nc1C(=O)Nc1[nH]c(=O)ncc1-c1ccccn1 please. < 1 µM

For the molecule shown here, COc1ccccc1-c1nc(C(=O)Nc2cnccc2N2CCCC(N)C2)c(N)nc1N (stereo not drawn) , give the reported IC50. < 1 µM

# get_value(readout='IC50', item= Nc1nccnc1C(=O)Nc1[nH]c(=O)ncc1-c1nccs1 ) < 1 µM

// lookup IC50 for CC(=O)NC1CCCN(c2ccncc2NC(=O)c2nc(Br)cnc2N)C1 (stereo not drawn) < 1 µM

# query: IC50 of entry NCCC(=O)N1CCN(c2ccncc2NC(=O)c2nc(-c3ccccc3F)ccc2N)CC1 < 1 µM

What does the record list as IC50 for Nc1cc(F)c(-c2c(F)cccc2F)nc1C(=O)Nc1cnccc1N1CCC[C@H](N)C1 ? < 1 µM

Record request: IC50 value, item Nc1ccc(-c2cncc(O)n2)nc1C(=O)Nc1cnccc1N1CCC[C@H](N)C1 < 1 µM

So what's the measured IC50 for this one? Nc1cc(-c2ccncc2NC(=O)c2cccc(-c3ccccc3F)n2)nc(C(F)(F)F)n1 < 1 µM

Recorded IC50 of CCCOc1ccc(F)c(-c2ccc(N)c(C(=O)Nc3cnccc3-c3cc(N)nc(SC)n3)n2)c1F , please. < 1 µM

// returns reported IC50 for input CC(C)NC(=O)c1ccc(F)c(-c2ccc(N)c(C(=O)Nc3cnccc3N3C[C@@H](N)C[C@@H](F)C3)n2)c1 < 1 µM

What measured IC50 goes with N#Cc1ccccc1-c1cnc(N)c(C(=O)Nc2cnccc2N2CCCC(N)C2)n1 (stereo not drawn) ? < 1 µM

Please give the measured IC50 for this molecule: Nc1cc(F)c(Br)nc1C(=O)Nc1cnccc1N1CCC[C@H](N)C1 < 1 µM

Fill in: IC50 of CC(C)NC(=O)c1ccc(F)c(-c2ccc(N)c(C(=O)Nc3cnccc3N3C[C@@H](N)C[C@H](OC(=O)c4ccccc4)C3)n2)c1 (stereo in doubt) is ___ < 1 µM

Tell me the measured IC50 of Cc1nc(N)ncc1-c1ccc(N)c(C(=O)Nc2cnccc2N2CCC[C@H](N)C2)n1 , please. < 1 µM

So what's the measured IC50 for this one? Nc1cc(F)c(-c2ccncc2)nc1C(=O)Nc1cnccc1N1CCC[C@H](N)C1 < 1 µM

Which value of IC50 has been reported for Nc1cc(-c2ccncc2NC(=O)c2cccc(-c3ccccc3)n2)nc(C(F)(F)F)n1 in the records? < 1 µM

For Cc1nc(N)cc(-c2ccncc2NC(=O)c2nc(-c3ccccc3)ncc2N)n1 , what is its reported IC50? < 1 µM

Entry Nc1ncc(Br)nc1C(=O)Nc1[nH]c(=O)ncc1N1CCCC(F)C1 (stereo not drawn) has what IC50? < 1 µM

Given the molecule NC(=O)c1cccc(-c2cnc(N)c(C(=O)Nc3cnccc3N3CCNCC3)n2)c1 , what is its reported IC50? < 1 µM

# query: IC50 of entry CC(=O)c1ccc(N2CCC(N)CC2)c(NC(=O)c2nccnc2N)c1 < 1 µM

Data request, read-out IC50, for Nc1ccc(-c2scc3c2OCCO3)nc1C(=O)Nc1cnccc1N1CCC[C@H](N)C1 < 1 µM

Recorded IC50 for Nc1nccnc1C(=O)Nc1cnccc1Cl , please? 1 to 10 µM

// lookup IC50 for Nc1ccc(-c2cccc(Cl)c2F)nc1C(=O)Nc1cnccc1N1CCC[C@H](N)C1 < 1 µM

Value lookup for IC50; key = CCCNC(=O)c1ccc(F)c(-c2ccc(N)c(C(=O)Nc3cnccc3N3CCC[C@H](N)C3)n2)c1 < 1 µM

What value of IC50 has been reported for the following molecule? Nc1ccc(-c2cccc(C(F)(F)F)c2)nc1C(=O)Nc1cnccc1N1CCC[C@H](N)C1 < 1 µM

Data request, read-out IC50, for CN(C)C1CCN(c2ccncc2NC(=O)c2nccnc2N)CC1 < 1 µM

Which IC50 value belongs to Nc1nc(N)c(C(=O)Nc2[nH]c(=O)ncc2N2CCC(C(F)(F)F)CC2)nc1Cl ? < 1 µM

Which measured IC50 value corresponds to Nc1nccnc1C(=O)Nc1[nH]c(=O)ncc1-c1ccco1 ? < 1 µM
